biological target: thrombin (Homo sapiens, UniProt P00734); construct: purchased Sigma Chem. Co. T-7009; experiment: Inhibition of thrombin; type: biochemical; details: Table III; 10 uM; read-out: Thrombin % I @ 10 uM
Square brackets hold non-standard residues; d marks the D form. Peptide text beside a SMILES is read from it. * marks the point of attachment. d2Thi = N[C@H](Cc1cccs1)C(=O)O; Bn = c1ccc(C*)cc1; Ms = CS(=O)(=O)*
Exercise: for every item that follows, state its recorded inhibition at 10 µM.
Answers are plain numbers, in %.

[[record]]
compound = "C[C@@H](NS(=O)(=O)c1ccccc1)C(=O)N[C@H](C=O)Cc1ccccc1 [Compound 104]"
reported_result = 7

[[record]]
compound = "Cc1ccc(S(=O)(=O)O[C@@H]2C[C@H](C(=O)N[C@H](C=O)Cc3ccccc3)N(S(=O)(=O)c3ccc(C)cc3)C2)cc1 [Compound 121]"
reported_result = 3

[[record]]
compound = "CS(=O)(=O)N[C@H](CSCc1ccccc1)C(=O)N[C@H](C=O)Cc1ccccc1 [Compound 106] (Ms-[dC](Bn)-Phe-aldehyde)"
reported_result = 7

[[record]]
compound = "O=C[C@H](Cc1ccccc1)NC(=O)[C@H]1C[C@@H](OS(=O)(=O)c2ccccc2)CN1S(=O)(=O)c1ccccc1 [Compound 112]"
reported_result = 0

[[record]]
compound = "CS(=O)(=O)N[C@H](Cc1ccc(OCc2ccccc2)cc1)C(=O)N[C@H](C=O)Cc1ccccc1 [Compound 89] (Ms-[dY](Bn)-Phe-aldehyde)"
reported_result = 0

[[record]]
compound = "O=C[C@H](Cc1ccccc1)NC(=O)[C@@H](COCc1ccccc1)NC(=O)C(c1ccccc1)c1ccccc1 [Compound 45]"
reported_result = 7

[[record]]
compound = "CS(=O)(=O)N[C@H](COCc1ccccc1)C(=O)N[C@H](C=O)CCCCNS(=O)(=O)c1ccccc1 [Compound 122]"
reported_result = 0

[[record]]
compound = "O=C[C@H](Cc1ccccc1)NC(=O)[C@@H](Cc1ccccc1)NS(=O)(=O)c1ccccc1 [Compound 59]"
reported_result = 0


For each of the items listed, what is its inhibition at 10 µM?
1. CC(C)C[C@@H](NS(C)(=O)=O)C(=O)N[C@H](C=O)Cc1ccccc1 [Compound 86] (Ms-[dL]-Phe-aldehyde)
2. CN(C)S(=O)(=O)N[C@H](COCc1ccccc1)C(=O)N[C@H](C=O)Cc1ccccc1 [Compound 47]
3. CC(C)(C)OC(=O)N[C@H](COCc1ccccc1)C(=O)N[C@H](C=O)Cc1ccccc1 [Compound 82]

1: 0; 2: 6; 3: 6

For each of the items listed, what is its inhibition at 10 µM?
1. C[N+]([O-])=C[C@H](Cc1ccccc1)NC(=O)[C@@H](COCc1ccccc1)NS(C)(=O)=O [Compound 116]
2. CS(=O)(=O)N[C@H](Cc1cccs1)C(=O)N[C@H](C=O)Cc1ccccc1 [Compound 100] (Ms-[d2Thi]-Phe-aldehyde)

[0, 0]
